The entries below come with measured pIC50 values attached.
Tested on: CAL-39;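 also: cell viability assay measuring growth inhibition of CAL-39 cells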
Experiment: cells
Type: functional, cell-based, Homo sapiens
Settings: Homo sapiens, CAL-39
Description: SANGER: Inhibition of human CAL-39 cell growth in a cell viability assay.
Structures can show the parent of a compound that is named as a salt.
API: returns pIC50 as number; meaning -log10 of concentration in mol/L.

Example molecules with recorded pIC50:
MOLECULE | NUMBER
COC1=CC(c2cc3ccccc3[nH]2)=N/C1=C\c1[nH]c(C)cc1C [OBATOCLAX MESYLATE] | 6.64
Cn1cnc2c(F)c(Nc3ccc(Br)cc3Cl)c(C(=O)NOCCO)cc21 [SELUMETINIB] | 6.48

Qu. Which pIC50 reading was recorded for the molecule O=C(O)c1ccc(-c2c[nH]c3ncc(-c4ccccc4)cc23)cc1C1CCCC1 [GSK-650394] ?
Ans. 5.03

* * *

Test system: RH-18;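 also: growth inhibition of human RH-18 cells, read out with a cell viability assay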
Assay: cells
Type: functional, cell-based, Homo sapiens
Settings: Homo sapiens, Rh18
Description: SANGER: Inhibition of human RH-18 cell growth in a cell viability assay.
pIC50: −log10 of the molar value.
ENDPOINT: pIC50

COMPOUND | MEASURED_ON | pIC50
CCN(CC)CCCCNc1ncc2cc(-c3cc(OC)cc(OC)c3)c(NC(=O)NC(C)(C)C)nc2n1 | RH-18 | < 5.70

// below: pIC50 requested for another compound
Qu. Which pIC50 reading was recorded for the compound Nc1cccc2c1CN(C1CCC(=O)NC1=O)C2=O (configuration not stated) [LENALIDOMIDE] ?
Ans. < 5.30

* * *

Tested on: PANC-03-27
Assay: cells
Type: functional, cell-based, Homo sapiens
Conditions: Homo sapiens, PANC-03-27
Description: SANGER: Inhibition of human PANC-03-27 cell growth in a cell viability assay.
pIC50: −log10 of the molar value.
ENDPOINT: pIC50

Example molecules with recorded pIC50:
STRUCTURE_NOTATION | pIC50
Oc1ccc2ccccc2c1SSc1c(O)ccc2ccccc12 | < 4.49
CS(=O)(=O)c1ccc(C(=O)Nc2ccc(Cl)c(-c3ccccn3)c2)c(Cl)c1 | < 5.00

// below: pIC50 requested for another molecule
Qu. Give PANC-03-27 pIC50 for CCC/C=C/C=C/C(=O)O[C@H]1/C(=C/C(=O)OC)C[C@H]2C[C@H]([C@@H](C)O)OC(=O)C[C@H](O)C[C@@H]3C[C@H](OC(C)=O)C(C)(C)[C@](O)(C[C@@H]4C/C(=C/C(=O)OC)C[C@H](/C=C/C(C)(C)[C@]1(O)O2)O4)O3
Ans. < 8.10

* * *

Test system: MZ1-PC;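 also: cell viability assay measuring growth inhibition of human MZ1-PC cells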
Assay: cells
Type: functional, cell-based, Homo sapiens
Conditions: Homo sapiens, MZ1-PC
Description: SANGER: Inhibition of human MZ1-PC cell growth in a cell viability assay.
ENDPOINT: IC50

Example molecules with recorded IC50:
MOLECULE | IC50
CCN(CC)CCCCNc1ncc2cc(-c3cc(OC)cc(OC)c3)c(NC(=O)NC(C)(C)C)nc2n1 | > 2000 nM
COc1cc2ncn(-c3cc(OCc4ccccc4S(C)(=O)=O)c(C#N)s3)c2cc1OC [GSK-319347A] | > 5000 nM
Cc1ccc(-c2c(C(=O)CCl)n(CCCO)c3ncnc(N)c23)cc1 | 2920 nM

Qu. Which IC50 reading was recorded for the molecule Cn1cnc2c(F)c(Nc3ccc(Br)cc3Cl)c(C(=O)NOCCO)cc21 ?
Ans. 3320 nM

Qu. Which IC50 reading was recorded for the molecule CO[C@H]1C[C@@H]2CC[C@@H](C)[C@@](O)(O2)C(=O)C(=O)N2CCCC[C@H]2C(=O)O[C@H]([C@H](C)C[C@@H]2CC[C@@H](OC(=O)C(C)(CO)CO)[C@H](OC)C2)CC(=O)[C@H](C)/C=C(\C)[C@@H](O)[C@@H](OC)C(=O)[C@H](C)C[C@H](C)/C=C/C=C/C=C/1C ?
Ans. > 200 nM

Qu. Which IC50 reading was recorded for the molecule CS(=O)(=O)c1ccc(C(=O)Nc2ccc(Cl)c(-c3ccccn3)c2)c(Cl)c1 ?
Ans. > 10000 nM

Qu. Which IC50 reading was recorded for the molecule Cc1cn(-c2cc(NC(=O)c3ccc(C)c(Nc4nccc(-c5cccnc5)n4)c3)cc(C(F)(F)F)c2)cn1 ?
Ans. > 2000 nM

Qu. Which IC50 reading was recorded for the molecule CCC/C=C/C=C/C(=O)O[C@H]1/C(=C/C(=O)OC)C[C@H]2C[C@H]([C@@H](C)O)OC(=O)C[C@H](O)C[C@@H]3C[C@H](OC(C)=O)C(C)(C)[C@](O)(C[C@@H]4C/C(=C/C(=O)OC)C[C@H](/C=C/C(C)(C)[C@]1(O)O2)O4)O3 ?
Ans. > 8 nM

Qu. Which IC50 reading was recorded for the molecule OCCCNc1cc(-c2ccnc(Nc3cccc(Cl)c3)n2)ccn1 ?
Ans. 42.7 nM
